Tested on: plasmodium berghei
Assay: suppression of parasitemia in mice infected with plasmodium berghei
Type: in vivo
Conditions: mice, s.c., 1.0 mg/kg on days 1-3; 4th day
Where a name gives a salt, the structure may show the parent alone.
Assign Mean % Suppression to each entry below.
Reply numerically in %, unit not repeated.

Q. Indicate its recorded Mean % Suppression; the compound in question is CNC(=N)NC(=O)Nc1c(C)cc(Br)cc1Cl.Cl [Compound C]
A. 47.6

Q. Indicate its recorded Mean % Suppression; the compound in question is CNC(=N)NC(=O)Nc1c(C)cccc1Br [Compound B, hydrochloride]
A. 28.6

Q. Indicate its recorded Mean % Suppression; the compound in question is CCCN=C(NC)NC(=O)Nc1c(C)cccc1C [Compound D, hydrochloride]
A. 57.1

Q. Indicate its recorded Mean % Suppression; the compound in question is CCCNC(=O)NC(=N)Nc1c(Cl)cccc1Cl [Compound A]
A. 52.3
